Molecular target: human Cereblon WT GST-tagged protein (Homo sapiens)
Construct: purchased CISBIO 64BDCRBNPEH
Sequence (Q96SW2 whole entry): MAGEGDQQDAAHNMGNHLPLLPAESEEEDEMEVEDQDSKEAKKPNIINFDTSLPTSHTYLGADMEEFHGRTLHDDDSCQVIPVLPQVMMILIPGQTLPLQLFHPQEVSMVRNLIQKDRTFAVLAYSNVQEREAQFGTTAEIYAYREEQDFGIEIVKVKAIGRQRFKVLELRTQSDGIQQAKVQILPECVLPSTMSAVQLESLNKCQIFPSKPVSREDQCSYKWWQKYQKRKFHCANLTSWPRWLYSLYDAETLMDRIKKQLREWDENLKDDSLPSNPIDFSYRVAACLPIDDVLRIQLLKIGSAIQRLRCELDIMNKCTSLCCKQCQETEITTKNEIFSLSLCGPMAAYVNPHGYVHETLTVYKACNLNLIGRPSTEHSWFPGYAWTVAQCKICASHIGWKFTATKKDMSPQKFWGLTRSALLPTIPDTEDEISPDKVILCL
Assay: CRBN binding, HTRF CEREBLON BINDING kit
Conditions: CRBN binding, HTRF CEREBLON BINDING kit
Provide the recorded IC50 for the entries that follow.

compound	IC50
O=C1CCN(c2cccc(CN3CCC(n4cc(NC(=O)c5cnn6ccc(N7C[C@H]8C[C@@H]7CO8)nc56)c(C(F)F)n4)CC3)c2)C(=O)N1	0.5 to 1 µM
CCc1cc2c(cc1N1CCC(N3CCN(Cc4cccc(N5CCC(=O)NC5=O)c4)CC3)CC1)C(C)(C)c1[nH]c3cc(C#N)ccc3c1C2=O	0.5 to 1 µM
O=C1CCN(c2ccc(CN3CCN(C4CCN(c5ccc(-c6cc(F)c7c(c6)C(=O)N(C(C(=O)Nc6nccs6)c6ncn8c6CCC8)C7)cc5)CC4)CC3)cc2)C(=O)N1 (stereo not drawn)	0.5 to 1 µM
O=C1CCC(c2ccc(CN3CCN(c4ccc(-c5cc(F)c6c(c5)C(=O)N(C(C(=O)Nc5nccs5)c5ncn7c5CCC7)C6)cc4)CC3)cc2)C(=O)N1 (stereo not drawn)	0.5 to 1 µM
O=C1CCN(c2ccc(CN3C[C@H]4C[C@@H]3CN4c3ccc(-c4cc(F)c5c(c4)C(=O)N(C(C(=O)Nc4nccs4)c4ncn6c4CCC6)C5)cc3)cc2)C(=O)N1 (stereo partly drawn)	< 0.5 µM
CN(C)C(=O)c1cc2cnc(Nc3ccc(N4CCN(Cc5ccc(N6CCC(=O)NC6=O)cn5)CC4)cn3)nc2n1C1CCCC1	1 to 1.9 µM

Hi team, please reply with IC50 for each item in this list.
1. O=C1CCN(c2cccc(CN3CCN(c4ccc(Nc5ncc6nc(Nc7ccccc7)n(C7CCCC7)c6n5)cc4)CC3)c2)C(=O)N1
2. COc1cc(N2CCC(N(C)Cc3cncc(N4CCC(=O)NC4=O)c3)CC2)ccc1Nc1ncc(Cl)c(Nc2ccccc2P(C)(C)=O)n1

OUT:
1. 0.5 to 1 µM
2. 1 to 1.9 µM

Hi team, please reply with IC50 for each item in this list.
1. O=C1CCN(c2cccc(CN3C[C@H]4C[C@@H]3CN4c3ccc(-c4cc(F)c5c(c4)C(=O)N(C(C(=O)Nc4nccs4)c4ncn6c4CCC6)C5)cc3)c2)C(=O)N1 (stereo partly drawn)
2. C=CC(=O)N1CCC[C@@H](n2nc(-c3ccc(Oc4ccccc4)cc3)c3c(N)ncnc32)C1 [ibrutinib, Ibrutinib, reference compound]
3. O=C1CCC(c2cncc(CN3CCN(c4ccc(-c5cc(F)c6c(c5)C(=O)N(C(C(=O)Nc5nccs5)c5ncn7c5CCC7)C6)cc4)CC3)c2)C(=O)N1 (stereo not drawn)
4. Nc1nnc(-c2ccccc2O)cc1N1CCN(Cc2ccc(N3CCC(=O)NC3=O)cc2)CC1
5. CCc1cc2c(cc1N1CCC(N3CCN(Cc4ccc(C5CCC(=O)NC5=O)cn4)CC3)CC1)C(C)(C)c1[nH]c3cc(C#N)ccc3c1C2=O (stereo not drawn)
6. Cc1ccc(-c2c(C)noc2C)cc1N(CC1CCN(Cc2ccc(N3CCC(=O)NC3=O)cn2)CC1)c1ccc(C2(C#N)CC2)cc1
7. Nc1nc(Nc2ccc(S(=O)(=O)N3CCN(Cc4ccc(C5CCC(=O)NC5=O)cc4)CC3)cc2)nn1C(=O)c1c(F)cccc1F (stereo not drawn)

OUT:
< 0.5 µM
> 10 µM
< 0.5 µM
0.5 to 1 µM
< 0.5 µM
0.5 to 1 µM
0.5 to 1 µM

Hi team, please reply with IC50 for each item in this list.
1. O=C1CCC(Nc2cccc(CN3CCN(C4CCN(c5ccc(-c6cc(F)c7c(c6)C(=O)N(C(C(=O)Nc6nccs6)c6ncn8c6CCC8)C7)cc5)CC4)CC3)c2)C(=O)N1 (stereo not drawn)
2. CNC(=O)c1ccc(N2C(=S)N(c3ccc(C#N)c(C(F)(F)F)c3)C(=O)C2(C)C)cc1F [Enzalutamide]
3. O=C1CCN(c2cc(CN3C[C@H]4C[C@@H]3CN4c3ccc(-c4cc(F)c5c(c4)C(=O)N(C(C(=O)Nc4nccs4)c4ncn6c4CCC6)C5)cc3)ccn2)C(=O)N1 (stereo partly drawn)
4. COc1cc(N2CCN(Cc3cccc(N4CCC(=O)NC4=O)c3)CC2)ccc1Nc1ncc(Cl)c(Nc2ccccc2P(C)(C)=O)n1
5. O=C1CCC(c2cc(CN3CCN(c4ccc(-c5cc(F)c6c(c5)C(=O)N(C(C(=O)Nc5nccs5)c5ncn7c5CCC7)C6)cc4)CC3)ccn2)C(=O)N1 (stereo not drawn)
6. Cc1nc2c(F)cc(-c3nc(Nc4ccc(N5CCC(N(C)Cc6ccc(N7CCC(=O)NC7=O)cc6)CC5)cn4)ncc3F)cc2n1C(C)C
7. CCc1cc2c(cc1N1CCC(N3CCN(Cc4cncc(C5CCC(=O)NC5=O)c4)CC3)CC1)C(C)(C)c1[nH]c3cc(C#N)ccc3c1C2=O (stereo not drawn)

OUT:
["0.5 to 1 µM", "> 10 µM", "1 to 1.9 µM", "1 to 1.9 µM", "1 to 1.9 µM", "0.5 to 1 µM", "< 0.5 µM"]

Hi team, please reply with IC50 for each item in this list.
1. CN1CCN([C@@H]2CCCN(c3cnc(C(N)=O)c(Nc4ccc(C5CCN(Cc6ccc(C7CCC(=O)NC7=O)c(F)c6)CC5)cc4)n3)C2)C1=O (stereo partly drawn)
2. CC(=O)c1c(C)c2cnc(Nc3ccc(N4CCN(Cc5ccc(C6CCC(=O)NC6=O)cc5)CC4)cn3)nc2n(C2CCCC2)c1=O (stereo not drawn)

OUT:
["< 0.5 µM", "0.5 to 1 µM"]
